Values were extracted from paper PMC8840040.

Experiment: Plasma pharmacokinetics and urinary elimination after single oral and intravenous administration
Type: in vivo, FVB mice
Settings: FVB, mouse, plasma, iv, 30 mg/kg, i.v. 30 mg/Kg, single bolus
Protocol: Mice were treated with ZST316 and ZST152 using a dose of 60 mg/Kg (oral gavage) and 30 mg/Kg (intravenous bolus). For pharmacokinetic sampling, blood was collected at 15 and 30 min, and 1, 3, 8, and 24 h post dose. Three mice were analyzed per each time point. After the animals were anesthetized with isoflurane, the blood was drained from the retro-orbital plexus into heparinized tubes, and then centrifuged for 10 min at 4000× g at 4 °C to separate plasma. […]
Record form. Attribute: Cmax. Fill in for each entry.
Give the number first and the unit second.

[[record]]
compound = "COCCNC(=N)NCCC[C@H](N)C(=O)NS(C)(=O)=O [ZST316]"
observed = "67400 ng/mL"


Let's switch to this compound now.
Data request: Form field: reported Cmax of COCCNC(=N)NCCC[C@H](N)c1noc(=O)[nH]1 [ZST152]
Data returned: 24900 ng/mL
